# System: SF-295 CNS
# protocolDetails: NCI tumour cell line growth inhibition, 48 h
Reported TGI values for the following compounds.
Record the value in µM, omitting the unit from your answer.

CC(C)CCCC(C)[C@H]1CCC2[C@@H]3CCC4Nc5nocc5C[C@]4(C)C3CC[C@@]21C (stereo not given in full) :: 34

# TGI (compound: NCCSC(c1ccccc1)c1ccccc1 ) is 35.7

---

# System: HOP-92 NSCLC
# protocolDetails: NCI tumour cell line growth inhibition, 48 h; in the data active = GI50 below about 0.43 µM; inactive = the rest
Mark one answer only. Choices: label 1 (active), label 0 (inactive)

Consider the worked cases shown below.
COc1cccc([C@H]2C/C(=N\NC(=O)C(=O)N[C@@H](C)c3ccccc3)c3ccccc3N2)c1 :: label 1
COc1ccc(-c2nc(/C=N/Nc3cc(C)nc4ccc(Cl)cc34)c(C)o2)cc1 :: label 0
CCn1cnc(C[C@H](NC(=O)[C@@H](NC(=O)Nc2cc(C(F)(F)F)cc(C(F)(F)F)c2)C(C)C)C(=O)OC)c1 :: label 0
O=c1oc(Cl)c(Cl)c2ccccc12 :: label 0
N.N.N.N.N.[Cl-].[Co+3].c1ccc(-c2nn[n-]n2)cc1 :: label 0
COc1cccc(-c2nn(-c3ccccc3)cc2-c2ccnc(NCCCNC(=O)Nc3ccc(Cl)c(Cl)c3)c2)c1 :: label 0
CCCNC(=O)CCC(C)C1CCC2C3C(C[C@H](OC(C)=O)[C@]12C)[C@@]1(C)CCC2(C[C@H]1C[C@H]3OC(C)=O)OOC1(CC[C@]3(C)C4C[C@H](OC(C)=O)[C@]5(C)C(C(C)CCC(=O)NCCC)CCC5C4[C@H](OC(C)=O)C[C@@H]3C1)OO2 (stereo not given in full) :: label 0
O=C1c2cccc(NCCN=Cc3cc([N+](=O)[O-])ccc3O)c2C(=O)c2c(NCCN=Cc3cc([N+](=O)[O-])ccc3O)cccc21 :: label 0
C[C@]12CCc3sc(NCCc4ccccc4)nc3C1=CC[C@@H]1[C@@H]2CC[C@]2(C)C(=O)CC[C@@H]12 :: label 0
O=C1C(N2CC2)=C(N2CC2)C(=O)C(N2CC2)=C1N1CC1 :: label 0

Ask: I would be grateful if you could indicate the recorded call for CNC(=O)c1cccc2cc(Oc3ccnc4cc(OCC5(N)CC5)c(OC)cc34)ccc12 .
Result: label 0

Ask: I would be grateful if you could indicate the recorded call for O=C(Cn1c(=O)c(-c2ccccc2)nc2ccccc21)Nc1ccc(F)cc1 .
Result: label 0

---

Reported TGI values for the following molecules.
# System: NCI-H522 lung
# protocolDetails: NCI tumour cell line growth inhibition, 48 h
Record the value in µM, omitting the unit from your answer.

CC1OC(OC2C[C@](O)(C(=O)CF)Cc3c(O)c4c(c(O)c32)C(=O)c2ccccc2C4=O)CC(N)C1O (some centres undefined) :: 0.104
O=S(=O)(Nc1ccc(Br)c(Cl)c1)c1ccc(-c2cnc(C3CC3)o2)cc1 :: 10.7
COc1ccc2c(c1)[nH]c1c(/C=C/c3ccccc3)nccc12 :: 29
CCN(CC)/C(Sc1ccccc1)=C(\C(Cl)=C(Cl)Cl)[N+](=O)[O-] :: 33.3
CCn1cnc(C[C@H](NC(=O)[C@@H](NC(=O)Nc2cc(C(F)(F)F)cc(C(F)(F)F)c2)C(C)C)C(=O)OC)c1 :: 3.98
C=C1/C(=C\C=C2/CCC[C@]3(C)[C@@H]([C@H](C)CCCC(C)(C)O)CC[C@@H]23)C[C@@H](OC(=O)CBr)C[C@@H]1O :: 0.83
Nc1cccc(/C=C/C(=O)N2CCN(CCOC(c3ccccc3)c3ccccc3)CC2)c1 :: 28.7
O=CN/C=C/c1cccc(O)c1 :: 65.4

# TGI (molecule: CCOP(=O)(OCC)C(C)(CC)N/C(=N/C(NC(C)=O)(C(F)(F)F)C(F)(F)F)NC1=NC(C(F)(F)F)(C(F)(F)F)N=C(C(F)(F)F)O1 (centres undefined) ) is 77.7

# TGI (molecule: C[C@]12CCc3sc(NCCc4ccccc4)nc3C1=CC[C@@H]1[C@@H]2CC[C@]2(C)C(=O)CC[C@@H]12 ) is 3.64

# TGI (molecule: COc1cc2c(cc1OCCCCN1C(=O)c3cccc4cccc(c34)C1=O)N=C[C@@H]1CCCN1C2=O ) is 4.59

# TGI (molecule: COc1cc2c3c(n(CCCCN)c(=O)c2cc1OC)-c1cc2c(cc1C3=O)OCO2 ) is 9.89

# TGI (molecule: COc1cccc2c1ccc1nc3cccc(C(=O)N[C@H](C)CN(C)C)c3nc12 ) is 0.279

# TGI (molecule: COc1cc(Nc2c(C#N)cnc3cc(OCCCN4CCN(C)CC4)c(OC)cc23)c(Cl)cc1Cl ) is 6.36

# TGI (molecule: COC1=CC(c2ccc[nH]2)=N/C1=C\c1[nH]c(C)c(C(=O)CCCCC(=O)NC(C)(C)C)c1C ) is 6.73

# TGI (molecule: CCN(Cc1ccc(F)cc1)c1ccc(CO)c(F)c1 ) is 35.8

---

# Tested on: UO-31 renal
# protocolDetails: NCI tumour cell line growth inhibition, 48 h
Reported TGI values for the following compounds.

As a guide, the following entries are already answered.
O=C1c2cccc(NCCN=Cc3cc([N+](=O)[O-])ccc3O)c2C(=O)c2c(NCCN=Cc3cc([N+](=O)[O-])ccc3O)cccc21 :: > 100 µM
COc1ccc2c(=O)cc(-c3ccncc3)oc2c1OC :: 67.6 µM
COC(=O)C1CN=CN1CCc1ccccc1 (centres undefined) :: > 100 µM
COC1=CC(c2ccc[nH]2)=N/C1=C\c1[nH]c(C)c(C(=O)CCCCC(=O)NC(C)(C)C)c1C :: 6.27 µM
[N-]=[N+]=CC(=O)c1ccccc1C#CCCc1ccccc1 :: > 100 µM

With those in mind, consider the next compound.
# TGI (compound: CCOc1ccc(/C(Cl)=C(\C=O)c2ccc(OC)c(OC)c2)cc1OCC ) is > 100 µM

---

Reported TGI values for the following molecules.
# Test system: SK-OV-3 ovarian
# protocolDetails: NCI tumour cell line growth inhibition, 48 h

As a guide, the following entries are already answered.
O=C(c1ccc(Cl)cc1)N(C(=O)N1CCC(c2ccccc2)CC1)c1ccccc1 :: > 100 µM
COc1cc2c3c(n(CCCCN)c(=O)c2cc1OC)-c1cc2c(cc1C3=O)OCO2 :: 9.41 µM
CC(C)=CCC/C(=C/CC/C(=C\CCc1ccoc1)C(=O)O)C(=O)O :: > 100 µM
CN(C)C(=S)/N=c1\ssc(=S)n1Cc1ccccc1 :: 5.27 µM

# TGI (molecule: O=C(CCCN1CCC2(CC1)CC(=O)N(N1CCCCCC1)C2=O)c1ccccc1 ) is > 100 µM

# TGI (molecule: CN1CNc2nc(N)n(C)c(=O)c2C1 ) is > 10 µM

# TGI (molecule: CC12CC3OC(=O)C1COC14OC5(C2C1=O)C(O)(CCC1C4CC(O)C2(O)CC=CC(=O)C12C)C(=O)OC35C (configuration not stated) ) is > 100 µM

---

# Test system: A498 renal
# protocolDetails: NCI tumour cell line growth inhibition, 48 h
Reported TGI values for the following compounds.

As a guide, the following entries are already answered.
CC(C)(C)c1cc(C2=NNC(c3ccccc3)C2)cc(C(C)(C)C)c1O (stereo unspecified) :: 29.7 µM
C=CC1CN2CCC1CC2C(O)c1ccnc2ccc(OC)cc12 (stereo unspecified) :: > 100 µM
[N-]=[N+]=CC(=O)c1ccccc1C#CCCc1ccccc1 :: > 100 µM
CC1=NN(c2nc(N)nc(CSc3nc4n(c(=S)n3)CCN4)n2)C(C)(C)C1 :: > 100 µM
NCCCCc1cc(O)c2c(c1O)C(=O)c1ccccc1C2=O :: 37.2 µM

With those in mind, consider the next compound.
# TGI (compound: COc1ccc(-n2cnc3c2NC(C)(C)N=C3C(N)=O)c(OC)c1 ) is > 100 µM

---

Reported TGI values for the following molecules.
# Tested on: CCRF-CEM leukemia
# protocolDetails: NCI tumour cell line growth inhibition, 48 h
Record the value in µM, omitting the unit from your answer.

As a guide, the following entries are already answered.
CC(C)C1=CC23CCC4C(C)(C(=O)O)CCCC4(C)C2CC1C1C(=O)N(c2ccccc2N2C(=O)C4C5CC6C7(C)CCCC(C)(C(=O)O)C7CCC6(C=C5C(C)C)C4C2=O)C(=O)C13 (centres undefined) :: 22.1
COc1nc(C#CC2(O)CCCCC2)nc(OC)n1 :: 48.6

Short answer on CCRF-CEM leukemia for O=C(Nc1cccc(-n2cc(-c3ccncc3)c(-c3cc(O)cc(Cl)c3)n2)c1)Nc1ccc(Cl)c(C(F)(F)F)c1 , TGI: 8.93

Short answer on CCRF-CEM leukemia for CN(C)CCN(C)c1ccc2c(=O)n(CCN(C)C)c(=O)n3c4ccccc4c(=O)c1c23 , TGI: 0.293
